Listed next: entries and their corresponding log10 of IC50.
molecular target: JAK2 (Homo sapiens); experiment: JAK2 Tyrosine Kinase Assay; format: biochemical; conditions: ATP 30 μM; JAK2 1 nM; 60 min room temperature
Sequence (O60674 whole entry): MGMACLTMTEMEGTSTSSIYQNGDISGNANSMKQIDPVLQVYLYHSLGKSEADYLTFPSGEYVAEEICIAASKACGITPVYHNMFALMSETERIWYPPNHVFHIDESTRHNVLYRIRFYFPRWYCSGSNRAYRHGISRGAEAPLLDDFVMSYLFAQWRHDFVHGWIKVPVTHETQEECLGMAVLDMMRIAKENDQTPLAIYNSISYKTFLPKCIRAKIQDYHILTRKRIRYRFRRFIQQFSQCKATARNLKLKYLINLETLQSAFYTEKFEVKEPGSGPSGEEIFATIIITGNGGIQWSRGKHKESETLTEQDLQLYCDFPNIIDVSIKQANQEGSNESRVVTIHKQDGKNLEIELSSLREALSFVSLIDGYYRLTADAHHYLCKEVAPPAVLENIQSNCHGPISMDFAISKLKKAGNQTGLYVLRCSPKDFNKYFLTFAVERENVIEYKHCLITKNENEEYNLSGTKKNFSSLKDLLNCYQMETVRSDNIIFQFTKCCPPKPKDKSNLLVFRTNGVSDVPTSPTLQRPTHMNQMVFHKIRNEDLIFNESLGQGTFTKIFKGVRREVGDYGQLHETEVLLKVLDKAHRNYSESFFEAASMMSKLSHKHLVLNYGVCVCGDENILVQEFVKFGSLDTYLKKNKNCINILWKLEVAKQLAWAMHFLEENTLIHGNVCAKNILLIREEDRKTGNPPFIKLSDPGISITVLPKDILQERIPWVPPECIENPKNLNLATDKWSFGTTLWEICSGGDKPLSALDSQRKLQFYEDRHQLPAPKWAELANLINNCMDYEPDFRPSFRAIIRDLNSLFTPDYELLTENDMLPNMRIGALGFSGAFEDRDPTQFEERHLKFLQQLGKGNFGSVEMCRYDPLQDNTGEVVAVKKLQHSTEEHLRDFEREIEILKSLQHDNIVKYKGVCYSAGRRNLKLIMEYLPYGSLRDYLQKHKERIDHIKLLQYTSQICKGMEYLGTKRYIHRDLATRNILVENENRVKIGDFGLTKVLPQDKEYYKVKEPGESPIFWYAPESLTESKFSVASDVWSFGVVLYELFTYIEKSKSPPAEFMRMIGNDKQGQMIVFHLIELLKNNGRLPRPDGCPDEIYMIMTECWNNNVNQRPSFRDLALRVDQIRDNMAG
parameter-measured: log10 of IC50 (log10 of the value in nM)

[
  {
    "compound": "CCn1c(C(=O)N(C2CC2)C2CC2)cc2c3c(ncn3C)c(Nc3nc(CF)cs3)nc21",
    "log10 of IC50": 0.18
  },
  {
    "compound": "CCn1c(C(=O)N(C2CC2)C2CC2)cc2c3c(ncn3C)c(Nc3cc(CN4CCOCC4)n(C)n3)nc21",
    "log10 of IC50": 0.17
  },
  {
    "compound": "CCn1c(C(=O)N(C2CC2)C2CC2)cc2c3c(ncn3C)c(Nc3nc(C(=O)NC4CCS(=O)(=O)C4)cs3)nc21 (centres unmarked)",
    "log10 of IC50": 0.18
  },
  {
    "compound": "CCn1c(C(=O)N(C2CC2)C2CC2)cc2c3c(ncn3C)c(Nc3nc4c(s3)CS(=O)(=O)CC4)nc21",
    "log10 of IC50": -0.20
  },
  {
    "compound": "CCn1c(C(=O)N(C2CC2)C2CC2)cc2c3c(ncn3C)c(Nc3nc(C(F)(F)F)c(C)s3)nc21",
    "log10 of IC50": 1.00
  }
]
